These measurements were taken from ChEMBL document CHEMBL3988442.

# subject of test: Tyrosyl-tRNA synthetase, putative (Trypanosoma cruzi (strain CL Brener))
# Sequence (whole entry): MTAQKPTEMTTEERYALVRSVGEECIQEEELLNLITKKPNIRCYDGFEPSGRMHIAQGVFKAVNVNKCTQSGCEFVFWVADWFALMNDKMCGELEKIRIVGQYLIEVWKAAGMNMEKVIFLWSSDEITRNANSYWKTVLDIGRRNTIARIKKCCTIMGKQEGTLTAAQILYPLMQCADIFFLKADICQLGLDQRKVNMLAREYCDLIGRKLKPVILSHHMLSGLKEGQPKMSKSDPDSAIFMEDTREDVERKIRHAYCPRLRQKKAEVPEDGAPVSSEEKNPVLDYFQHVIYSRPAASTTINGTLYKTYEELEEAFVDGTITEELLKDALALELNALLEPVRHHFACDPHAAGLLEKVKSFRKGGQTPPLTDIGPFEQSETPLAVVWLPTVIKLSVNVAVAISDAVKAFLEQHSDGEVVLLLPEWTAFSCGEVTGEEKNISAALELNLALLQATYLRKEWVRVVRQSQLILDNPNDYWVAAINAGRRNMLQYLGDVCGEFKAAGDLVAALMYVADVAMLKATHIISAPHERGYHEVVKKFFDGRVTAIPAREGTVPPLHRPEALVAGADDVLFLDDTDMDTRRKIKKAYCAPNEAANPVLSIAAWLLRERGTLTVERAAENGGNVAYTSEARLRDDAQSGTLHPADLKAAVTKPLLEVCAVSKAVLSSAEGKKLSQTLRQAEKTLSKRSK
# method notes: Trypanosoma cruzi tyrosyl tRNA synthetase (TcYRS) SOP
# Format: functional
# Design: scale not given: direction of the effect not stated beside the values
# run parameters: 30 µM
assay readout: Percent Effect (%)
Write the value in % as a bare number.

Example entries and their recorded answers appear below.
Cc1noc(C)c1CN1CC[C@H]2C[C@@H](c3ccncn3)O[C@@H]2C1 | 17.9
Cc1n[nH]c2c1C(c1ccc(O)c(Cl)c1)SCC(=O)N2 (configuration not stated) | 15.4
c1cncc(N2CCCC3(CN(Cc4cccs4)CCO3)C2)c1 (configuration not stated) | 5.13
CN1CCC2(COCc3cnc(N4CCOCC4)nc32)C1 (configuration not stated) | -5.13
c1cc(NC2CC3(CCN(Cc4cc[nH]n4)C3)C2)ncn1 (configuration not stated) | 3.9
c1ccc(N2CCCC3(CCN(Cc4nccs4)C3)C2)nc1 (configuration not stated) | 20
Cc1n[nH]c2c1C(c1ccsc1)SCC(=O)N2 (configuration not stated) | 6.41
CC(C)CN1C[C@H]2C[C@H](C(=O)Nc3cccnc3)[C@@H](C1)O2 | 15.4
C[C@H]1C[C@@H]2CCN(Cc3ccccn3)C[C@H]2O1 | -5.13
O=C1C[C@H]2[C@H](CCN2Cc2ccccn2)N1CC1CC1 | 2.5

Please look up its Percent Effect: CC(c1ccc(F)cc1)N1CCN(Cc2ccc(C#N)cc2)CC1 (configuration not stated) 13.6

Please look up its Percent Effect: "CCc1ccc(CN2CCN(C)c3ncccc3C2)o1" -5.13

----------
# subject of test: Shiga toxin 2 (Escherichia coli O157:H7) (UniProt P09385+P09386)
# method notes: E. coli 0.157:H7 Shiga Toxin SOP - stx2 screening assay
# Type: functional
# Set-up: scale not given: direction of the effect not stated beside the values
# run parameters: 30 µM
assay readout: Percent Effect (%)
Write the value in % as a bare number.

Example entries and their recorded answers appear below.
c1cnn(CC2CN(c3ncnc4sccc34)CCO2)c1 (centres undefined) | -6.78
Cc1cnn(CCNCc2nnc(C3CC3)o2)c1 | -42.1
CN(C(=O)Cc1ccc(NC(=O)NC2CCC2)cc1)c1ccccc1 | -9.88
CN(Cc1cnn(C)c1)C(=O)NCc1csc(Br)c1 | 32.1
CCc1noc(C2CCCCN2C(=O)c2ccoc2C)n1 (centres undefined) | -33.6
COc1ccc(-c2noc(CN3CCc4cncnc4C3)n2)cc1 | -15
CCCN(CCO)C(=O)C1CCC(=O)N(CCc2ccc(Cl)cc2)C1 (centres undefined) | 18
O=C(c1ccc(C(F)(F)F)nc1)N1CCCC(n2cncn2)C1 (centres undefined) | -8.71

Lookup: Percent Effect / Shiga toxin 2 (Escherichia coli O157:H7) (UniProt P09385+P09386) / "CN(Cc1cccnc1)[C@@H]1CN(CC2CC2)[C@@H]2CCCO[C@H]12" -18

Lookup: Percent Effect / Shiga toxin 2 (Escherichia coli O157:H7) (UniProt P09385+P09386) / FC(F)(F)Cn1ccnc1CN1CCCC1c1noc(C2CC2)n1 (centres undefined) -34

Lookup: Percent Effect / Shiga toxin 2 (Escherichia coli O157:H7) (UniProt P09385+P09386) / CN(CC(F)(F)F)C(=O)C1CSCN1C(=O)OC(C)(C)C (centres undefined) -9.84

Lookup: Percent Effect / Shiga toxin 2 (Escherichia coli O157:H7) (UniProt P09385+P09386) / "Cn1ncc2c(=O)[nH]c(N3CCN(C(=O)c4ccsc4)CC3)nc21" 13.3

Lookup: Percent Effect / Shiga toxin 2 (Escherichia coli O157:H7) (UniProt P09385+P09386) / "CC(C)Oc1ccccc1CNC(=O)N1CCC(n2cncn2)CC1" -31.1

Lookup: Percent Effect / Shiga toxin 2 (Escherichia coli O157:H7) (UniProt P09385+P09386) / "Cc1csc2ncc(-c3ccnc(N4CCN(C)CC4)n3)c(=O)n12" -20.6

Lookup: Percent Effect / Shiga toxin 2 (Escherichia coli O157:H7) (UniProt P09385+P09386) / c1cnnc(N2CCCC(NCc3nc(C4CC4)no3)C2)c1 (centres undefined) -18.7

Lookup: Percent Effect / Shiga toxin 2 (Escherichia coli O157:H7) (UniProt P09385+P09386) / "O=C(CCN1C(=O)CCC1=O)Nc1cnn(-c2ccccc2Cl)c1" 1.3
